Source: patent US9918990B2

Target: BRD4-BD1 (Homo sapiens (Human), UniProt O60885)
Assay: BRD4 AlphaScreen assay, BRD4-BD1
Conditions: H4Ac4 peptide, 75 min, room temperature, read-out: BRD4 BD-1 enzyme IC50
Where a name gives a salt, the structure may show the parent alone.

- compound: "Cn1cc(-c2ccc3c([nH]c(=O)n3C)c2Oc2ccccc2F)c2cc[nH]c2c1=O [Example 39]"
  IC50: "< 100 nM"
- compound: "Cn1cc(-c2ccc3c(c2Oc2ccccc2)NC(c2ccccc2)CO3)c2cc[nH]c2c1=O (stereo not shown) [Example 110]"
  IC50: "100 to 1000 nM"
- compound: "Cn1cc(-c2ccc3ncn(CCC#N)c3c2Oc2ccccc2)c2cc[nH]c2c1=O [Example 55]"
  IC50: "< 100 nM"
- compound: "Cn1cc(-c2ccc3c(ncn3C)c2Oc2ccc(F)cc2F)c2cn[nH]c2c1=O [Example 18]"
  IC50: "< 100 nM"
- compound: "Cn1cc(-c2cc(CNCc3ccccc3)c3[nH]c(=O)[nH]c3c2Oc2ccc(F)cc2F)c2cc[nH]c2c1=O [Example 80]"
  IC50: "< 100 nM"
- compound: "CCS(=O)(=O)c1c(-c2cn(C)c(=O)c3[nH]ccc23)ccc2c1[nH]c(=O)n2C [Example 99]"
  IC50: "1000 to 10000 nM"
- compound: "C[C@@H]1CN(CCn2c(NCc3ccccc3)nc3c(Oc4ccccc4)c(-c4cn(C)c(=O)c5[nH]ccc45)ccc32)C[C@H](C)O1 [Example 71, trifluoroacetate]"
  IC50: "1000 to 10000 nM"
- compound: "Cn1cc(-c2ccc3c([nH]c(=O)n3C)c2OCC2CC2)c2cc[nH]c2c1=O [Example 74]"
  IC50: "< 100 nM"
- compound: "Cn1cc(-c2ccc3c(c2OCC2CCC2)n(CCN2CCOCC2)c(=O)n3C)c2cc[nH]c2c1=O [Example 60]"
  IC50: "< 100 nM"
- compound: "Cn1cc(-c2ccc3c(ncn3C)c2Oc2ccccc2F)c2cc[nH]c2c1=O [Example 57]"
  IC50: "< 100 nM"
- compound: "Cc1nc2c(Oc3ccc(F)cc3F)c(-c3cn(C)c(=O)c4[nH]ncc34)ccc2n1C [Example 19]"
  IC50: "< 100 nM"
- compound: "Cn1cc(-c2ccc3[nH]c(=O)[nH]c3c2Oc2cccc(F)c2)c2cc[nH]c2c1=O [Example 25]"
  IC50: "< 100 nM"
- compound: "Cn1cc(-c2ccc3c(ncn3CCN3CCOCC3)c2Oc2ccc(F)cc2F)c2cn[nH]c2c1=O [Example 17]"
  IC50: "< 100 nM"
- compound: "Cn1cc(-c2ccc3c([nH]c(=O)n3C)c2OC2CCCOC2)c2cc[nH]c2c1=O (stereo not shown) [Example 91]"
  IC50: "< 100 nM"
- compound: "Cn1cc(-c2ccc3c(cnn3C)c2OCC2CC2)c2cn[nH]c2c1=O [Example 77]"
  IC50: "< 100 nM"
- compound: "Cn1cc(-c2ccc3[nH]cnc3c2OCC2CC2)c2cc[nH]c2c1=O [Example 12]"
  IC50: "< 100 nM"

----------
Biological target: BRD4-BD1 (Homo sapiens (Human), UniProt O60885)
Assay: BRD4 AlphaScreen assay, BRD4-BD1
Settings: H4Ac4 peptide, 75 min, room temperature, read-out: BRD4 BD-1 enzyme IC50
Structures can show the parent of a compound that is named as a salt.
quantity: IC50

- compound: "Cn1cc(-c2cc(CNCCN3CCOCC3)c3[nH]c(=O)[nH]c3c2Oc2ccc(F)cc2F)c2cc[nH]c2c1=O"
  quantity: "IC50"
  measured: "100 to 1000 nM"
- compound: "Cn1cc(-c2ccc3c([nH]c(=O)n3C)c2OC2CCCC2)c2cc[nH]c2c1=O"
  quantity: "IC50"
  measured: "< 100 nM"
- compound: "Cn1cc(-c2ccc3[nH]cnc3c2Oc2ccc(F)cc2F)c2cc[nH]c2c1=O [Example 2, trifluoroacetate]"
  quantity: "IC50"
  measured: "< 100 nM"
- compound: "Cn1cc(-c2ccc3c(ncn3C)c2Oc2ccc(F)cc2F)c2cc[nH]c2c1=O [Example 4, trifluoroacetate]"
  quantity: "IC50"
  measured: "< 100 nM"
- compound: "COc1c(-c2cn(C)c(=O)c3[nH]ccc23)ccc2c1[nH]c(=O)n2C"
  quantity: "IC50"
  measured: "100 to 1000 nM"
- compound: "C[C@@H]1CN(CCn2c(NCC3CC3)nc3c(Oc4ccccc4)c(-c4cn(C)c(=O)c5[nH]ccc45)ccc32)C[C@H](C)O1 [Example 72, trifluoroacetate]"
  quantity: "IC50"
  measured: "100 to 1000 nM"
- compound: "Cn1cc(-c2cc(CNCC3CC3)c3[nH]c(=O)[nH]c3c2Oc2ccc(F)cc2F)c2cc[nH]c2c1=O"
  quantity: "IC50"
  measured: "100 to 1000 nM"
